target: T1, Human PD-1-His protein (Cat. #10377H08H, Sino Biological) (human, UniProt Q15116 25-167); assay: SPR (Biacore), antibody captured on Protein A chip, PD-1 in flow
T1 construct: Bought protein; also called hPD-1-His; hu PD-1-his; not shown: His tag of the bought protein
T1 sequence (Q15116 25-167 limits assumed): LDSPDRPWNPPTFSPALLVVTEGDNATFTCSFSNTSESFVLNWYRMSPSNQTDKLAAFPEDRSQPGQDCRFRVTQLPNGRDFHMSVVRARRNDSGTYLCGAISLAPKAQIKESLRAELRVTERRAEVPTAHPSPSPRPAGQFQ
ATTRIBUTE_MEASURED: kon (M⁻¹ s⁻¹)
Give bare numbers, in M⁻¹ s⁻¹.

Hu23-14.IgG4AA (antibody, V domains shown, Full-length IgG4-AA, kappa; also called Hu23LCDR1 (G29V)) VH: EVQLVQSGAEVKKPGSSVKVSCKASGGTFSDYEMHWVRQAPGQGLEWMGLIDPETGGTVYNQKFKDRVTITADKSTSTAYMELSSLRSEDTAVYYCARERFSYYGSTSDWYFDVWGQGTTVTVSS VL: DIVMTQTPLSLPVTPGEPASISCRSSQSLVHSNVNTYLEWYLQKPGQSPQLLIYKVSNRFSGVPDRFSGSGSGTDFTLKISRVEAEDVGVYYCFQGSHVPYTFGGGTKVEIKR ... 72300

Input: # query: kon of entry Hu23-13.IgG4AA (antibody, V domains shown, Full-length IgG4-AA, kappa; also called Hu23LCDR1 (G29A)) VH: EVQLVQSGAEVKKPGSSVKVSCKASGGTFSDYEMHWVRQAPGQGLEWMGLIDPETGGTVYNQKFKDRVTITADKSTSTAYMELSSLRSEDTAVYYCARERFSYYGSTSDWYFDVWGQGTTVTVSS VL: DIVMTQTPLSLPVTPGEPASISCRSSQSLVHSNANTYLEWYLQKPGQSPQLLIYKVSNRFSGVPDRFSGSGSGTDFTLKISRVEAEDVGVYYCFQGSHVPYTFGGGTKVEIKR
Output: 42400
